test system: Hek293T; test: Primary qHTS to identify gynecologic anti-cancer compounds using libraries of approved drugs and bioactive compounds (AID 1345084); settings: Gynecologic cancer cell panel viability, ATPlite luminescence, 48 h, control line for the selectivity index; series mostly up to 57.5 µM; note: nearly all actives have a fitted effect of over 55% in size
Records with an inconclusive call do not appear. Active and inactive are the calls of the source. Calls come from the whole dose curve; as a rule, active = well fitted cell-killing curve with a large enough effect; inconclusive = small, poorly fitted or top-dose-only effect, or effect the other way; inactive = flat fitted curve, though single readings scatter.
QUANTITY MEASURED: Potency

Sample records with Potency:
[[record]]
compound = "Cn1c(CNc2ccc(C(=N)N)cc2)nc2cc(C(=O)N(CCC(=O)O)c3ccccn3)ccc21"
recorded_measurement = "inactive"

[[record]]
compound = "CCn1cc(-c2ccnc3[nH]c(-c4cccc(CN(C)C)c4)cc23)c(-c2ccc(NC(=O)N(C)C)cc2)n1"
recorded_measurement = "inactive"

[[record]]
compound = "COc1cc(C(=O)N2CCC(N3CCN(C)CC3)CC2)ccc1Nc1ncc2c(n1)N(C)c1ccccc1C(=O)N2C"
recorded_measurement = "inactive"

[[record]]
compound = "CC1(O)CC(c2nc(-c3ccc4ccc(-c5ccccc5)nc4c3)c3c(N)nccn23)C1 (centres undefined)"
recorded_measurement = "inactive"


Entry c1nc2nc(Nc3ccc(N4CCOCC4)cc3)nc(NC3CCCCC3)c2[nH]1 : reported Potency = ?
inactive

GET /values?readout=Potency&item= COc1ccc2c(c1)CC[C@@H](CN(C)CC(=O)O)[C@H]2c1ccccc1
inactive

Would you mind telling me what Potency value was observed for COc1cc2c(Oc3ccc4[nH]c(C)cc4c3F)ncnc2cc1OCCCN1CCCC1 ?
inactive

Which measured Potency value corresponds to Clc1cccc(-c2nnnn2Cc2cccnc2)c1Cl ?
inactive

Using the record for COc1cc2nccc(Oc3ccc(NC(=O)C4(C(=O)Nc5ccc(F)cc5)CC4)cc3)c2cc1OC , report its Potency.
inactive

Requested field: Potency. Item: CNC(=O)CN1CCC(Oc2cc3c(Nc4cccc(Cl)c4F)ncnc3cc2OC)CC1
inactive

Can you share its Potency? I mean this compound: NC(=O)c1cccc2cn(-c3ccc([C@@H]4CCCNC4)cc3)nc12
inactive

Look up Potency: Cc1ccc(NC(=O)C2(c3ccc4c(c3)OC(F)(F)O4)CC2)nc1-c1cccc(C(=O)O)c1
inactive

---

experiment: qHTS of pediatric cancer cell lines to identify multiple opportunities for drug repurposing: Confirmatory screen for BT-12 cells (AID 1347112); settings: BT-12 rhabdoid tumor cells, viability; series mostly up to 45.9 µM;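 note: viability read after 48 h of compound exposure; nearly all actives have a fitted effect of over 55% in size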
Results filed as inconclusive are left out. Activity calls are given as the source filed them. Calls come from the whole dose curve; as a rule, active = well fitted cell-killing curve with a large enough effect; inconclusive = small, poorly fitted or top-dose-only effect; inactive = flat fitted curve, though single readings scatter.
I would appreciate it if you answered using one of these outcomes: Yes (active), No (inactive)

As a guide, the following entries are already answered.
[[record]]
molecule = "Cc1cc(Nc2cc(NC(=O)c3c(Cl)cccc3Cl)ccn2)nc(N)n1"
assigned_class = "Yes"

[[record]]
molecule = "Cc1nc2ccc(CN(C)c3ccc(C(=O)N[C@@H](CCC(=O)O)C(=O)O)s3)cc2c(=O)[nH]1"
assigned_class = "No"

[[record]]
molecule = "COc1cccc2nc(-c3cccs3)nc(NN3C(=O)C=C(C)C3=O)c12"
assigned_class = "Yes"


// return assay outcome for COCCn1c2c([n+](Cc3cnccn3)c1C)C(=O)c1ccccc1C2=O
Yes

What call does the record list for NC(=O)c1cccc2cn(-c3ccc([C@@H]4CCCNC4)cc3)nc12 ?
No

Record lookup: outcome of this test for C[C@@]12O[C@@H](C[C@]1(O)CO)n1c3ccccc3c3c4c(c5c6ccccc6n2c5c31)CNC4=O ?
Yes

Called result for CCS(=O)(=O)c1cccc(-c2cc(C(=O)NC3CCN(C)CC3)c(C)c3[nH]c4ncc(C)cc4c23)c1
Yes

Assay result, entry CN(c1ncccc1CNc1nc(Nc2ccc3c(c2)CC(=O)N3)ncc1C(F)(F)F)S(C)(=O)=O — outcome?
Yes

Test call, this molecule: CN(C)CC(C)(C)CNc1nn2c(-c3ccccc3)nnc2cc1C1CCC1
No

Could you please tell me the result logged for COc1cccc(-c2ccc(NC(=O)C3=C(C(=O)O)CCC3)c(F)c2)c1 in this assay?
No

# fetch the recorded call for O=C(NC1CCNCC1)c1[nH]ncc1NC(=O)c1c(Cl)cccc1Cl here
Yes

Record lookup: outcome of this test for O=C(C=Cc1cccnc1)NCCCCC1CCN(C(=O)c2ccccc2)CC1 ?
No

Recorded call for COc1cccc(Nc2c(C(N)=O)cnc3c(C)cc(S(=O)(=O)c4cccc(C(=O)N(C)C)c4)cc23)c1 ?
No

For this molecule, state the assay outcome: CC(C)c1cc(C(=O)N2Cc3ccc(CN4CCN(C)CC4)cc3C2)c(O)cc1O
Yes

Please let me know the test result on file for Cc1ccc(NC(=O)C2(c3ccc4c(c3)OC(F)(F)O4)CC2)nc1-c1cccc(C(=O)O)c1 .
Yes

Which outcome did this test record for the molecule Cc1c(NC(=O)OC[C@@H]2COCCN2)cn2ncnc(Nc3ccc4c(cnn4Cc4cccc(F)c4)c3)c12 ?
Yes

What did this assay record as the result for Cn1c2ccccc2c2c3c(c4c5ccccc5n(CCC#N)c4c21)CNC3=O ?
No

What did the test return for C=CCn1c(=O)c2cnc(Nc3ccc(N4CCN(C)CC4)cc3)nc2n1-c1cccc(C(C)(C)O)n1 ?
Yes

For CC(C)CC(=O)Nc1n[nH]c2c1CN(C(=O)C1CCN(C)CC1)C2(C)C , what call appears in the results of this test?
Yes

Which result was noted for this molecule in the test: Cc1cc(Nc2ncnc3ccc(-c4ccc(CNCCS(C)(=O)=O)o4)cc23)ccc1Oc1ccn2ncnc2c1
No

Name the outcome recorded for O=C(O)c1ccc2cc(-c3ccc(O)c(C45CC6CC(CC(C6)C4)C5)c3)ccc2c1 in the assay.
No

Write down the call the test reported for this molecule. Item: COc1ccc(OC)c(-c2nnc3ccc(-c4ccc(OC)c(O[C@@H]5CCOC5)c4)nn23)c1
No

Which result was noted for this molecule in the test: C=CC(=O)N1CCC[C@@H](n2nc(-c3ccc(Oc4ccccc4)cc3)c3c(N)ncnc32)C1
No

---

system: GB4; test: qHTS profiling for inhibitors of Plasmodium falciparum proliferation (AID 504749); note: nearly all actives have a fitted effect of over 60% in size; conditions: P. falciparum in erythrocytes, SYBR Green DNA, 72 h; series mostly up to 28.7 µM
Records with an inconclusive call do not appear. Active and inactive are the calls of the source. Calls follow the shape of the dose curve; as a rule, active = well fitted inhibition curve with a large enough effect; inconclusive = small, poorly fitted or top-dose-only effect; inactive = flat fitted curve, though single readings scatter.
Use one of these outcomes when replying: active, inactive

Use the examples below as a reference point.
[[record]]
molecule = "COC(=O)C1=C(C)NC(C)=C(C(=O)OCCN2CCN(C(c3ccccc3)c3ccccc3)CC2)C1c1cccc([N+](=O)[O-])c1 (stereo not drawn)"
assigned_class = "active"

[[record]]
molecule = "CN1c2cc(O)c(N=NC(N)=O)cc2CC1S(=O)(=O)O (stereo not drawn)"
assigned_class = "inactive"

[[record]]
molecule = "Nc1ccn([C@@H]2CS[C@H](CO)O2)c(=O)n1"
assigned_class = "inactive"


Identify the outcome logged in this assay for the molecule shown: COC(=O)C[C@](O)(CCCC(C)(C)O)C(=O)O[C@@H]1C(OC)=C[C@]23CCCN2CCc2cc4c(cc2[C@H]13)OCO4
active

Short answer needed: outcome of this test for CCC1=C[C@@H]2CN(C1)Cc1c([nH]c3ccccc13)[C@@](C(=O)OC)(c1cc3c(cc1OC)N(C)[C@@H]1[C@@](O)(C(=O)OC)[C@H](OC(C)=O)[C@]4(CC)C=CCN5CC[C@]31[C@@H]54)C2 ?
active

Could you please tell me the result logged for CC[C@H]1CN2CCc3cc(OC)c(OC)cc3[C@H]2C[C@@H]1C[C@@H]1NCCc2cc(OC)c(OC)cc21 in this assay?
active

Which outcome did this test record for the molecule Nc1ccc(S(=O)(=O)Nc2ncccn2)cc1 ?
inactive

Please share the test call associated with C[C@H]1C[C@@H]2[C@@H]([C@@H](O)C[C@@]3(C)[C@H]2CC[C@]3(O)C(=O)CO)[C@@]2(C)C=CC(=O)C=C12 .
inactive

---

Experiment: Identifying Small Molecule Inhibitors of Pancreatic Cancer Stem Cells (Panc1, Adherent) (AID 1259362)
Settings: viability; series mostly up to 46.1 µM
Source text: Progenitor-like cancer cells, often referred to as cancer stem cells (CSC), are believed to be the drivers of therapeutic resistance and rapid recurrence. CSCs are postulated to reside in specific niches characterized by low oxygen tension, limited nutrient supply, and high redox load. Selectively targeting CSC, alone or in combination with cytotoxic agents, as a means to produce durable remissions is an appealing concept. […]
Results filed as inconclusive are left out. The source made the active and inactive calls. The call rests on the fitted dose curve; in most records, active means well fitted cell-killing curve with a large enough effect; inconclusive means small, poorly fitted or top-dose-only effect, or effect the other way, or another doubt; inactive means no such curve, though single readings can be large or run the other way.
Lab note: assign the record to one of active, inactive

Examples from the recorded data:
[[record]]
entry_smiles = "C[C@@H](Oc1cc(-n2cnc3ccc(CN4CCN(C)CC4)cc32)sc1C(N)=O)c1ccccc1C(F)(F)F"
assigned_class = "active"

[[record]]
entry_smiles = "CC[C@@H]1C(=O)N(C)c2cnc(Nc3ccc(C(=O)NC4CCN(C)CC4)cc3OC)nc2N1C1CCCC1"
assigned_class = "active"

[[record]]
entry_smiles = "CCCCN1CCC(CNC(=O)c2c3n(c4ccccc24)CCCO3)CC1"
assigned_class = "inactive"


How was CCN(CC)CCCCNc1ncc2cc(-c3cc(OC)cc(OC)c3)c(NC(=O)NC(C)(C)C)nc2n1 classified in this test?
inactive

Outcome? CC(=O)OCCN1C(=O)c2c(C)nc3ccc(S(=O)(=O)N4CCOCC4)cc3c2C1=O
active
